Tested on: adult female L. cuprina
Assay type: in vivo
Conditions: L. cuprina; NS = not significantly different from unity
Procedure: […] The toxicity of OPs in adult female L. cuprina was determined 3 or 4 days post-eclosion by application of OPs to the scutellum in 0.7 μl dioctylphthalate (Busvine, J. R., Bell, J. D. and Guneidy, A. M., Bulletin of Entomological Research 54: 589, 1963;; Townsend, M. G. and Busvine, J. R., Entomology Experimental and Applied 12: 243, 1969). […] Mortality was determined 24 hours later. […]
resultType: RF (Dz/para R): ratio of the LD50 of Llandillo 103 with the LD50 of LS2
Reply briefly: the number, and no unit.

INSERT INTO measurements (molecule, numericreadout) VALUES
  ('CCOP(=O)(OC=C(Cl)Cl)OCC [Ethyl Dichlorvos, 2,2-dichlorovinyl diethyl phosphate]', 7);

stdin: Report RF (Dz/para R): ratio of the LD50 of Llandillo 103 with the LD50 of LS2 for COP(=O)(OC)OC=C(Cl)Cl [Dichlorvos, 2,2-dichlorovinyl dimethyl phosphate]
stdout: 4

stdin: Report RF (Dz/para R): ratio of the LD50 of Llandillo 103 with the LD50 of LS2 for "CCOP(=S)(OCC)Oc1ccc(SC)c(C)c1"
stdout: 2

stdin: Report RF (Dz/para R): ratio of the LD50 of Llandillo 103 with the LD50 of LS2 for "COP(=S)(OC)Oc1ccc([N+](=O)[O-])cc1"
stdout: 12

stdin: Report RF (Dz/para R): ratio of the LD50 of Llandillo 103 with the LD50 of LS2 for "CCOP(=S)(OCC)Oc1cc(C)nc(C(C)C)n1"
stdout: 10

stdin: Report RF (Dz/para R): ratio of the LD50 of Llandillo 103 with the LD50 of LS2 for "CCOP(=S)(OCC)Oc1ccc([N+](=O)[O-])cc1"
stdout: 20
